Origin of the recorded values: patent US20010031760A1

VALUE_KIND: melting point

COMPOUND_SMILES	OBSERVED_RESULT
COc1cc2nc(N3CCN(C(=O)c4conc4C)CC3)nc(N)c2cc1OC.Cl	300 to 301 °C (dec.)
COc1cc2nc(N3CCN(C(=O)c4cscn4)CC3)nc(N)c2cc1OC.Cl	274 to 277 °C (dec.)
COc1cc2nc(N3CCN(C(=O)c4cnoc4)CC3)nc(N)c2cc1OC.Cl	225 to 260 °C (dec.)

Below: the item to evaluate.
Ask | What melting point value was documented for this compound, COc1cc2nc(N3CCN(C(=O)c4cc(C)no4)CC3)nc(N)c2cc1OC.Cl ?
Reply | 263 to 264 °C (dec.)

###

# key: entry, value: melting point

COMPOUND_SMILES	VALUE_KIND	OBSERVED_RESULT
COc1cc2nc(N3CCN(C(=O)c4cncs4)CC3)nc(N)c2cc1OC.Cl	melting point	280 to 281 °C (dec.)
COc1cc2nc(N3CCN(C(=O)c4cnns4)CC3)nc(N)c2cc1OC.Cl	melting point	295 to 297 °C
COc1cc2nc(N3CCN(C(=O)c4cc(C)on4)CC3)nc(N)c2cc1OC.Cl	melting point	271 to 273 °C (dec.)
COc1cc2nc(N3CCN(C(=O)c4csc(C)n4)CC3)nc(N)c2cc1OC.Cl	melting point	260 to 263 °C (dec.)

Below: the item to evaluate.
Ask | What melting point value was documented for this molecule, COc1cc2nc(N3CCN(C(=O)c4ccon4)CC3)nc(N)c2cc1OC.Cl ?
Reply | 268 to 273 °C (dec.)

###

Counter-ions that a name gives are not always drawn.
# key: entry, value: melting point

Observe how each entry below is paired with its result.
COMPOUND	melting point
COc1cc2nc(N3CCN(C(=O)c4ocnc4C)CC3)nc(N)c2cc1OC.Cl	283.5 to 288 °C (dec.)
COc1cc2nc(N3CCN(C(=O)c4cocn4)CC3)nc(N)c2cc1OC.Cl	291 to 294 °C (dec.)
COc1cc2nc(N3CCN(C(=O)C4CCCC4)CC3)nc(NN)c2cc1OC.Cl	282 to 284 °C
COc1cc2nc(N3CCN(C(=O)c4cnsc4)CC3)nc(N)c2cc1OC.Cl	286 to 287 °C (dec.)

Ask | What melting point value was documented for this compound, COc1cc2nc(N3CCN(C(=O)c4nccs4)CC3)nc(N)c2cc1OC.Cl ?
Reply | 273 to 276 °C (dec.)

Ask | What melting point value was documented for this compound, COc1cc2nc(N3CCN(C(=O)c4csnn4)CC3)nc(N)c2cc1OC.Cl ?
Reply | 270 °C (dec.)

Ask | What melting point value was documented for this compound, COc1cc2nc(N3CCN(C(=O)C4CCCC4)CC3)nc(N)c2cc1OC (as salt: hydrochloride) [Example 127] ?
Reply | 279 to 280 °C (dec.)

Ask | What melting point value was documented for this compound, COc1cc2nc(N3CCN(C(=O)c4coc(C)n4)CC3)nc(N)c2cc1OC.Cl ?
Reply | 278 to 280 °C (dec.)

Ask | What melting point value was documented for this compound, COc1cc2nc(N3CCN(C(=O)C4CC=CCC4)CC3)nc(N)c2cc1OC (stereo not drawn) [Example 132] ?
Reply | 234 to 236 °C
